Numbers sourced from patent US5919668A.

Recorded Others in degradation product by alpha-glucosidase values for a group of molecules are listed next.
test system: rice alpha-glucosidase; assay: Degradation by rice alpha-glucosidase; assay type: biochemical; settings: pH4.0, 37° C., 18 hours
A complete answer gives the number and then names the unit.

{"molecule": "OC[C@H]1O[C@H](O[C@H]2O[C@H](CO)[C@@H](O[C@H]3O[C@H](CO)[C@@H](O[C@H]4O[C@H](CO)[C@@H](O[C@H]5O[C@H](CO)[C@@H](O[C@H]6O[C@H](CO)[C@@H](O[C@H]7O[C@H](CO)[C@@H](O)[C@H](O)[C@H]7O)[C@H](O)[C@H]6O)[C@H](O)[C@H]5O)[C@H](O)[C@H]4O)[C@H](O)[C@H]3O)[C@H](O)[C@H]2O)[C@H](O)[C@@H](O)[C@@H]1O [PV, alpha-maltopentaosyl trehalose]", "val": "0.3%"}

Turning now to a further record.
## Input Look up Others in degradation product by alpha-glucosidase for this molecule: OC[C@H]1O[C@H](O[C@H]2O[C@H](CO)[C@@H](O[C@H]3O[C@H](CO)[C@@H](O[C@H]4O[C@H](CO)[C@@H](O)[C@H](O)[C@H]4O)[C@H](O)[C@H]3O)[C@H](O)[C@H]2O)[C@H](O)[C@@H](O)[C@@H]1O [PII, alpha-maltosyl trehalose]
## Output 0.3%

----------
experiment: Maillard reaction (coloration with glycine, absorbance at 480 nm); assay type: physicochemical; settings: 10% saccharide, 1% glycine, 50 mM phosphate buffer pH7.0, 100° C., 90 minutes, 1 cm cuvette
Quick list: Coloration degree at 480 nm per entry.
I only need the number, thanks.

{"compound": "OC[C@H]1O[C@H](O[C@H]2O[C@H](CO)[C@@H](O[C@H]3O[C@H](CO)[C@@H](O)[C@H](O)[C@H]3O)[C@H](O)[C@H]2O)[C@H](O)[C@@H](O)[C@@H]1O", "Coloration degree at 480 nm": 0.027}

## Input Look up Coloration degree at 480 nm: `OC[C@H]1O[C@H](O[C@H]2O[C@H](CO)[C@@H](O[C@H]3O[C@H](CO)[C@@H](O[C@H]4O[C@H](CO)[C@@H](O)[C@H](O)[C@H]4O)[C@H](O)[C@H]3O)[C@H](O)[C@H]2O)[C@H](O)[C@@H](O)[C@@H]1O`
## Output 0.018

## Input Would you kindly share the measured Coloration degree at 480 nm for OC[C@H]1OC(O)[C@H](O)[C@@H](O)[C@@H]1O (stereo partly shown) ?
## Output 1.671

## Input Need Coloration degree at 480 nm of `OC[C@H]1O[C@H](O[C@H]2O[C@H](CO)[C@@H](O[C@H]3O[C@H](CO)[C@@H](O[C@H]4O[C@H](CO)[C@@H](O[C@H]5O[C@H](CO)[C@@H](O)[C@H](O)[C@H]5O)[C@H](O)[C@H]4O)[C@H](O)[C@H]3O)[C@H](O)[C@H]2O)[C@H](O)[C@@H](O)[C@@H]1O` , thanks.
## Output 0.012

## Input Quick one: Coloration degree at 480 nm for OC[C@H]1O[C@H](O[C@H]2[C@H](O)[C@@H](O)[C@@H](O[C@H]3[C@H](O)[C@@H](O)[C@@H](O[C@H]4[C@H](O)[C@@H](O)[C@@H](O[C@H]5[C@H](O)[C@@H](O)C(O)O[C@@H]5CO)O[C@@H]4CO)O[C@@H]3CO)O[C@@H]2CO)[C@H](O)[C@@H](O)[C@@H]1O (stereo partly shown) [Maltopentaose, maltopentaose, reference compound] ?
## Output 0.369

## Input Recorded Coloration degree at 480 nm of `OC[C@H]1O[C@H](O[C@H]2O[C@H](CO)[C@@H](O)[C@H](O)[C@H]2O)[C@H](O)[C@@H](O)[C@@H]1O` , please.
## Output 0.006

## Input So what does the record say about Coloration degree at 480 nm for OC[C@H]1O[C@H](O[C@H]2[C@H](O)[C@@H](O)[C@@H](O[C@H]3[C@H](O)[C@@H](O)[C@@H](O[C@H]4[C@H](O)[C@@H](O)C(O)O[C@@H]4CO)O[C@@H]3CO)O[C@@H]2CO)[C@H](O)[C@@H](O)[C@@H]1O (stereo partly shown) [Maltotetraose, maltotetraose, reference compound] ?
## Output 0.475

----------
molecular target: trehalose-releasing enzyme (Rhizobium sp. M-11, UniProt Q53238); construct: M-11, about 58-68 kDa; format: biochemical, Rhizobium species M-11; conditions: 20% substrate, 2 units/g, 40° C., pH7.0, 48 hours
Sequence (Q53238 whole entry): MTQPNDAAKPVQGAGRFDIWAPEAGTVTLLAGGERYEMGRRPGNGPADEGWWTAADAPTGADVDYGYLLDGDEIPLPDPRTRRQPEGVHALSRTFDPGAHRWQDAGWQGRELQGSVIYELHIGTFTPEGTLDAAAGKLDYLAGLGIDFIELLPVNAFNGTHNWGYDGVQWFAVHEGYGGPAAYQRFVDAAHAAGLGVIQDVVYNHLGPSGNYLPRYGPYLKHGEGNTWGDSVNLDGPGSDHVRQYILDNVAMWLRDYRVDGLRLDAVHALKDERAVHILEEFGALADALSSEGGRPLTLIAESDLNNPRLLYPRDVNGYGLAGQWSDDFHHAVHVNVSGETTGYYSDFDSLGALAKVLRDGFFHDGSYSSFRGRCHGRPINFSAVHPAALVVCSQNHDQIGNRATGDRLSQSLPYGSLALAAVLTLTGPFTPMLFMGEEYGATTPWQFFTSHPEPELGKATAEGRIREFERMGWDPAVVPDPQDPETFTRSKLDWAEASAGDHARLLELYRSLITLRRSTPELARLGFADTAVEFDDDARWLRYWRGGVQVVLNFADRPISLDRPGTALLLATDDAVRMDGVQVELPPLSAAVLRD
readout.label: Composition: trehalose formed (%)
Note: unit % is implicit; provide only the numeric part.

{"mol": "OC[C@H]1O[C@H](O[C@H]2O[C@H](CO)[C@@H](O[C@H]3O[C@H](CO)[C@@H](O[C@H]4O[C@H](CO)[C@@H](O[C@H]5O[C@H](CO)[C@@H](O[C@H]6O[C@H](CO)[C@@H](O)[C@H](O)[C@H]6O)[C@H](O)[C@H]5O)[C@H](O)[C@H]4O)[C@H](O)[C@H]3O)[C@H](O)[C@H]2O)[C@H](O)[C@@H](O)[C@@H]1O", "result.unit": "%", "val": 34.2}
{"mol": "OC[C@H]1O[C@H](O[C@H]2O[C@H](CO)[C@@H](O[C@H]3O[C@H](CO)[C@@H](O)[C@H](O)[C@H]3O)[C@H](O)[C@H]2O)[C@H](O)[C@@H](O)[C@@H]1O", "result.unit": "%", "val": 17.5}

Let us move to another entry and its Composition: trehalose formed.
## Input Which Composition: trehalose formed is listed for `OC[C@H]1O[C@H](O[C@H]2O[C@H](CO)[C@@H](O[C@H]3O[C@H](CO)[C@@H](O[C@H]4O[C@H](CO)[C@@H](O)[C@H](O)[C@H]4O)[C@H](O)[C@H]3O)[C@H](O)[C@H]2O)[C@H](O)[C@@H](O)[C@@H]1O` ?
## Output 44.3

----------
tested on: rice alpha-glucosidase; assay: Degradation by rice alpha-glucosidase; type: biochemical; details: pH4.0, 37° C., 18 hours
readout.label: Others in degradation product by alpha-glucosidase (%)
Give the value in % but do not write % after it.

The cases that follow already have their Others in degradation product by alpha-glucosidase on record.
{"mol": "OC[C@H]1O[C@H](O[C@H]2O[C@H](CO)[C@@H](O[C@H]3O[C@H](CO)[C@@H](O[C@H]4O[C@H](CO)[C@@H](O[C@H]5O[C@H](CO)[C@@H](O[C@H]6O[C@H](CO)[C@@H](O)[C@H](O)[C@H]6O)[C@H](O)[C@H]5O)[C@H](O)[C@H]4O)[C@H](O)[C@H]3O)[C@H](O)[C@H]2O)[C@H](O)[C@@H](O)[C@@H]1O", "target": "rice alpha-glucosidase", "val": 0.3}
{"mol": "OC[C@H]1O[C@H](O[C@H]2O[C@H](CO)[C@@H](O[C@H]3O[C@H](CO)[C@@H](O)[C@H](O)[C@H]3O)[C@H](O)[C@H]2O)[C@H](O)[C@@H](O)[C@@H]1O", "target": "rice alpha-glucosidase", "val": 0.5}

## Input Report Others in degradation product by alpha-glucosidase for `OC[C@H]1O[C@H](O[C@H]2O[C@H](CO)[C@@H](O[C@H]3O[C@H](CO)[C@@H](O[C@H]4O[C@H](CO)[C@@H](O[C@H]5O[C@H](CO)[C@@H](O)[C@H](O)[C@H]5O)[C@H](O)[C@H]4O)[C@H](O)[C@H]3O)[C@H](O)[C@H]2O)[C@H](O)[C@@H](O)[C@@H]1O` tested on rice alpha-glucosidase.
## Output 0.2

----------
Measured Molar ratio (glucose/trehalose) accompanies every entry in the list below.
system: glucoamylase; assay: Enzymatic hydrolysis by glucoamylase; format: biochemical; conditions: degradation product by glucoamylase
// response body must contain only the number

{"compound": "OC[C@H]1O[C@H](O[C@H]2O[C@H](CO)[C@@H](O[C@H]3O[C@H](CO)[C@@H](O[C@H]4O[C@H](CO)[C@@H](O[C@H]5O[C@H](CO)[C@@H](O[C@H]6O[C@H](CO)[C@@H](O)[C@H](O)[C@H]6O)[C@H](O)[C@H]5O)[C@H](O)[C@H]4O)[C@H](O)[C@H]3O)[C@H](O)[C@H]2O)[C@H](O)[C@@H](O)[C@@H]1O [PIV, alpha-maltotetraosyl trehalose]", "target": "glucoamylase", "Molar ratio (glucose/trehalose)": 4.09}

## Input Quick one: Molar ratio (glucose/trehalose) for OC[C@H]1O[C@H](O[C@H]2O[C@H](CO)[C@@H](O[C@H]3O[C@H](CO)[C@@H](O[C@H]4O[C@H](CO)[C@@H](O[C@H]5O[C@H](CO)[C@@H](O[C@H]6O[C@H](CO)[C@@H](O[C@H]7O[C@H](CO)[C@@H](O)[C@H](O)[C@H]7O)[C@H](O)[C@H]6O)[C@H](O)[C@H]5O)[C@H](O)[C@H]4O)[C@H](O)[C@H]3O)[C@H](O)[C@H]2O)[C@H](O)[C@@H](O)[C@@H]1O [PV, alpha-maltopentaosyl trehalose] ?
## Output 5.11
